These data points were gathered from patent US9050345B2.

Target: human KV 1.5 (IKur) (Homo sapiens, UniProt P22460)
Construct: expressed in transfected cells
Sequence (P22460 whole entry): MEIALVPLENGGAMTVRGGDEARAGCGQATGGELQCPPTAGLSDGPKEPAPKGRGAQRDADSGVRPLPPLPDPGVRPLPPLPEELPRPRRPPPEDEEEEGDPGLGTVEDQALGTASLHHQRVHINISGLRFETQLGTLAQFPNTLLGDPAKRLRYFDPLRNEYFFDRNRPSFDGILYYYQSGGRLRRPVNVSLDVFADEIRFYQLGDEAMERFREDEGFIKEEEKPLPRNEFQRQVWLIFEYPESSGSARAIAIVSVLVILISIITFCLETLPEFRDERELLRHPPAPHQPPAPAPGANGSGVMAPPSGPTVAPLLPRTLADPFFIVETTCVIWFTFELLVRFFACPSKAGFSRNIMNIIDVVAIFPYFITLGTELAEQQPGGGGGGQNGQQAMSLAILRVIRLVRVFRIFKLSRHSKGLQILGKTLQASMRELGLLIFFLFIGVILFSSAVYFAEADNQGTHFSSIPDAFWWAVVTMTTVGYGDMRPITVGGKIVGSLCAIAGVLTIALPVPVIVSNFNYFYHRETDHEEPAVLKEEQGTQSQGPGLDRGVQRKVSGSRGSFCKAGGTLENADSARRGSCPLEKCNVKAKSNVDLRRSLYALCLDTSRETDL
Experiment: block of IKur current in patch clamped L-929 cells expressing human Kv1.5
Assay type: cell-based
Details: L929, 0.3 μM; patch clamped mammalian L-929 cells stably expressing human Kv1.5; read-out: KV1_5% Inh L929 @0.3 μM
Measured Attribute: inhibition at 0.3 µM (%)

# Smiles Representation, inhibition at 0.3 µM (%)
rows = [
    ("Cc1nc(CNc2nc(-c3cncc(S(N)(=O)=O)c3)nn3ccc(-c4ccccc4)c23)cs1", 99.3),
]

(a) NC(=O)c1cncc(-c2nc(NCc3ccccn3)c3c(-c4ccccc4)ccn3n2)c1
(b) COc1ncc(-c2nc(N3Cc4cccnc4C3)c3c(-c4ccccc4)ccn3n2)cc1S(N)(=O)=O
QUERY: Parameter check: reported inhibition at 0.3 µM is higher for which label, a or b ? Bench note: the answer is the label of the chosen record.
RESULT: a
(a: 98.4%, b: 40.4%)

---

Molecular target: human KV 1.5 (IKur) (Homo sapiens)
Construct: expressed in transfected cells
Assay: block of IKur current in patch clamped L-929 cells expressing human Kv1.5
Format: cell-based
Settings: L929, 0.3 μM; patch clamped mammalian L-929 cells stably expressing human Kv1.5; read-out: KV1_5% Inh L929 @0.3 μM
Description: Assays to determine the degree of activity of a compound as an IKur inhibitor are well known in the art and are described in references such as J. Gen. Physiol., 101(4):513-543 (April 1993), and Br. J. Pharmacol., 115(2):267-274 (May 1995). Synders, D. J. et al., “A rapidly activating and slowly inactivating potassium channel cloned from human heart: functional analysis after stable mammalian cell culture expression”, J. Gen. Physiol., 101:513-543 (1993). • 2. […]
Measured Attribute: inhibition at 0.3 µM (%)

// worked examples, inhibition at 0.3 µM included
# Molecule, System, Quantity Unit, inhibition at 0.3 µM
measured = [
    ("CCCS(=O)(=O)Nc1cncc(-c2nc(NCc3ccccn3)c3c(-c4ccccc4)ccn3n2)c1 [Example 57]", "human KV 1.5 (IKur) (Homo sapiens)", "%", 95.5),
    ("O=S(=O)(CC(F)(F)F)Nc1cncc(-c2nc(NCc3ccccn3)c3c(-c4ccccc4)ccn3n2)c1 [Example 61]", "human KV 1.5 (IKur) (Homo sapiens)", "%", 90),
]

(P) COc1ncc(-c2nc(NCc3ccccc3)c3c(-c4ccccc4)ccn3n2)cc1S(=O)(=O)NC(C)(C)C [Example 93]
(Q) COc1ccc(-c2ccn3nc(-c4cncc(N)c4)nc(NCc4ccccn4)c23)cn1 [Example 70]
QUERY: Parameter metric = inhibition at 0.3 µM. Return the lower-valued option from P and Q . Please indicate the selected item by its label.
RESULT: P

---

Biological target: human KV 1.5 (IKur) (Homo sapiens, UniProt P22460)
Construct: expressed in transfected cells
Assay: block of IKur current in patch clamped L-929 cells expressing human Kv1.5
Format: cell-based
Details: L929, 0.3 μM; patch clamped mammalian L-929 cells stably expressing human Kv1.5; read-out: KV1_5% Inh L929 @0.3 μM
Description: Assays to determine the degree of activity of a compound as an IKur inhibitor are well known in the art and are described in references such as J. Gen. Physiol., 101(4):513-543 (April 1993), and Br. J. Pharmacol., 115(2):267-274 (May 1995). Synders, D. J. et al., “A rapidly activating and slowly inactivating potassium channel cloned from human heart: functional analysis after stable mammalian cell culture expression”, J. Gen. Physiol., 101:513-543 (1993). • 2. […]
Measured Attribute: inhibition at 0.3 µM (%)

Reference set, count: 2
# Compound, System, inhibition at 0.3 µM / %
records = [
    ("Nc1cncc(-c2nc(NCc3cnccn3)c3c(-c4ccccc4)ccn3n2)c1", "human KV 1.5 (IKur) (Homo sapiens, UniProt P22460)", 97.9),
    ("NS(=O)(=O)c1cncc(-c2nc(NCc3ncccc3F)c3c(-c4ccccc4)ccn3n2)c1", "human KV 1.5 (IKur) (Homo sapiens, UniProt P22460)", 96.2),
]

(P) NS(=O)(=O)c1cncc(-c2nc(NC3CCCc4cccnc43)c3c(-c4ccccc4)ccn3n2)c1 (stereo not shown)
(Q) O=C(NC1(CO)CCCC1)c1nc(NCc2ccccc2)c2c(-c3ccccc3)ccn2n1
QUERY: Pick the one with the larger inhibition at 0.3 µM: P vs Q Your answer should be the label attached to the chosen record.
RESULT: P
